meta.source: PubChem BioAssay AID652211

A short record of IC50 observed with Potassium channel subfamily K member 9 (Homo sapiens) (UniProt Q9NPC2) follows.
Sequence (Q9NPC2 whole entry, looked up): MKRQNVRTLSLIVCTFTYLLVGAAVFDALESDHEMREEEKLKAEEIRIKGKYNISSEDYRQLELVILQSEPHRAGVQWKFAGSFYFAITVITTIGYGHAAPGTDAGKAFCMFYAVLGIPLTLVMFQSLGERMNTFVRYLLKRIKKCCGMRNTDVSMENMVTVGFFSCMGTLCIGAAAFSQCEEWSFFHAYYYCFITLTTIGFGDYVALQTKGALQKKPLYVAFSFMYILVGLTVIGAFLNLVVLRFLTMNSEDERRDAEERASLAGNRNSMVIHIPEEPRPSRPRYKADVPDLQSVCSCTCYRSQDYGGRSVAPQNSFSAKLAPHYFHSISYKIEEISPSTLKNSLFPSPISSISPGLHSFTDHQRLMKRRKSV
ATTRIBUTE MEASURED: IC50

• Cc1cccc(C(=O)Nc2cccc(NC(=O)c3cccc(F)c3)c2)c1 = 600 nM
• CC(C)c1ccccc1C(=O)Nc1cccc(NC(=O)c2ccccc2OC(F)(F)F)c1 = 730 nM

---

# ASSAY TARGET: Potassium channel subfamily K member 9 (Homo sapiens) (UniProt Q9NPC2)
# ASSAY REMARKS: TASK3 (KCNK9) channel inhibitors, thallium flux, SAR follow-up, selectivity assay for TASK1 inhibitor project, cell-based, FluxOR thallium flux, concentration-response (AID 652211)
# REPORTED CONDITIONS: KCNK9-expressing cells, FluxOR thallium flux fluorescence; at 30 µM (top of the series)
Activity calls are given as the source filed them.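 How the source made its calls: active means lowers flux through the TASK3 potassium channel at some tested dose, with a dose response curve; inactive means no inhibition at any dose or no dose response.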
ATTRIBUTE MEASURED: thallium flux ratio, lower = inhibition

* O=C(Nc1cccc(NC(=O)c2ccc(C(F)(F)F)cc2)c1)c1ccccc1 | inactive
* CCOc1ccccc1NC(=O)c1cccc(C(=O)NC2CCCC2)c1 | inactive
* Cc1cccc(C(=O)Nc2cccc(C(=O)Nc3ccccc3)c2)c1 | inactive
* CCOc1ccccc1NC(=O)c1cccc(NC(=O)c2ccc(Cl)cc2)c1 | inactive
* CC(C)(C)c1ccc(C(=O)Nc2cccc(NC(=O)c3ccccc3)c2)cc1 | inactive
* O=C(Nc1cccc(NC(=O)c2ccc(Cl)cc2)c1)c1ccccc1 | inactive

---

# ASSAY TARGET: Potassium channel subfamily K member 9 (Homo sapiens) (UniProt Q9NPC2)
# ASSAY REMARKS: TASK3 (KCNK9) channel inhibitors, thallium flux, SAR follow-up, selectivity assay for TASK1 inhibitor project, cell-based, FluxOR thallium flux, concentration-response (AID 652211)
# REPORTED CONDITIONS: KCNK9-expressing cells, FluxOR thallium flux fluorescence; at 30 µM (top of the series)
Calls of active or inactive are those of the source.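 How the source made its calls: active means lowers flux through the TASK3 potassium channel at some tested dose, with a dose response curve; inactive means no inhibition at any dose or no dose response.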
ATTRIBUTE MEASURED: thallium flux ratio, lower = inhibition

* Cc1cccc(C(=O)Nc2ccccc2C(=O)Nc2ccccc2)c1 | inactive
* CCOc1ccccc1NC(=O)c1cccc(NC(=O)C2CCCO2)c1 (centres undefined) | inactive
* Cc1cccc(NC(=O)c2ccccc2NC(=O)c2ccccc2)c1 | inactive
* Cc1cccc(C(=O)Nc2cccc(NC(=O)c3ccncc3)c2)c1 | inactive
* O=C(Nc1cccc(NC(=O)c2ccoc2)c1)c1ccccc1 | inactive
* COc1ccc(C(=O)Nc2cccc(NC(=O)c3ccccc3)c2)cc1 | inactive
* Cc1cccc(C(=O)Nc2cccc(NC(=O)c3ccc(N(C)C)cc3)c2)c1 | inactive
* CCOc1ccccc1NC(=O)c1cccc(NC(=O)c2ccc(OC)cc2)c1 | inactive
* Cc1cccc(C(=O)Nc2cccc(NC(=O)c3ccc(Cl)cc3)c2)c1 | inactive
